Provenance of the data: ChEMBL document CHEMBL3588817

# assayed.system: Topoisomerase IV (Staphylococcus aureus, UniProt P0C1S7+P0C1U9)
# Sequence (P0C1U9 whole entry): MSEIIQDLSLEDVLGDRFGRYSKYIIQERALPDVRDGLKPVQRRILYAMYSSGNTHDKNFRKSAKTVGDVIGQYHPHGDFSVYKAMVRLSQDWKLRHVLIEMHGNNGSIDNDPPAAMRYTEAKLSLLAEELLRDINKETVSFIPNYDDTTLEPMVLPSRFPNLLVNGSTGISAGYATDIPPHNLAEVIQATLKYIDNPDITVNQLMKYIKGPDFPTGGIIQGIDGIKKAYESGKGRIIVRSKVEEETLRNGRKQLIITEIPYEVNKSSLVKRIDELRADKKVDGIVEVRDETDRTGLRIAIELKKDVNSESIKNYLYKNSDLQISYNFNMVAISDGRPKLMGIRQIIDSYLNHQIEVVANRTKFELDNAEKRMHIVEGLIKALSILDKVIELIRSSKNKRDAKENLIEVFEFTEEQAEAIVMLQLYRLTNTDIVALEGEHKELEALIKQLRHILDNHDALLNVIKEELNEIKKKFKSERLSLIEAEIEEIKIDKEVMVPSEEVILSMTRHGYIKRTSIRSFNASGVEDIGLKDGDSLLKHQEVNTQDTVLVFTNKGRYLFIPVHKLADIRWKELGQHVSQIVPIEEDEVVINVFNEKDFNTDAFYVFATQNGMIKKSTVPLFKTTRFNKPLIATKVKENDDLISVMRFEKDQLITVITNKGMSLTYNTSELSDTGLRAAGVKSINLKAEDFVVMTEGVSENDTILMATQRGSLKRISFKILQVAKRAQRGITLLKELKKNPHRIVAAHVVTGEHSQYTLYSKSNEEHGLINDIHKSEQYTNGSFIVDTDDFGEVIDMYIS
# Sequence (P0C1S7 whole entry): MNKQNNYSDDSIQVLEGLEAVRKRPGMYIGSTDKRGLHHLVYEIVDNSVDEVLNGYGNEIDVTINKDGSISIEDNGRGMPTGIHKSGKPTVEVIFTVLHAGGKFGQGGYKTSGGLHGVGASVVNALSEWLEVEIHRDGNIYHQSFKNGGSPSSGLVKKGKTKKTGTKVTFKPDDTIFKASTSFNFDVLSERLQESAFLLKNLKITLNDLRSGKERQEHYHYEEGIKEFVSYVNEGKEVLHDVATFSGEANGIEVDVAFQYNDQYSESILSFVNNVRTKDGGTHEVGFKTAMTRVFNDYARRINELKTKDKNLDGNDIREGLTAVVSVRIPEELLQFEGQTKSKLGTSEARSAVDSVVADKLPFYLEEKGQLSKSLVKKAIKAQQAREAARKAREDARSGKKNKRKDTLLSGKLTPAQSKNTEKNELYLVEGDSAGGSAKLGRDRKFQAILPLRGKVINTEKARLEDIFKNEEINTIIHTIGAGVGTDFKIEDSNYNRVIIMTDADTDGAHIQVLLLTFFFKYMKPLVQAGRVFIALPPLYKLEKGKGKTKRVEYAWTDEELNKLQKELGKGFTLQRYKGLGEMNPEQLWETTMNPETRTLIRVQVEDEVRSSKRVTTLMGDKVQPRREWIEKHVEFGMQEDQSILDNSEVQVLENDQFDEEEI
# assay.details: Inhibition of Staphylococcus aureus DNA topoisomerase 4 using kinetoplast DNA as substrate by decatenation assay
# Format: protein-complex assay
quantity.name: IC50 (µM)
# value in µM; strip the unit string

Reported IC50 for CO[C@@H]1[C@@H](OC(N)=O)[C@@H](O)[C@H](Oc2ccc3c(O)c(NC(=O)c4ccc(O)c(CC=C(C)C)c4)c(=O)oc3c2C)OC1(C)C was 20

###

# assayed.system: DNA gyrase (Staphylococcus aureus, UniProt P0A0K8+P20831)
# Sequence (P0A0K8 whole entry): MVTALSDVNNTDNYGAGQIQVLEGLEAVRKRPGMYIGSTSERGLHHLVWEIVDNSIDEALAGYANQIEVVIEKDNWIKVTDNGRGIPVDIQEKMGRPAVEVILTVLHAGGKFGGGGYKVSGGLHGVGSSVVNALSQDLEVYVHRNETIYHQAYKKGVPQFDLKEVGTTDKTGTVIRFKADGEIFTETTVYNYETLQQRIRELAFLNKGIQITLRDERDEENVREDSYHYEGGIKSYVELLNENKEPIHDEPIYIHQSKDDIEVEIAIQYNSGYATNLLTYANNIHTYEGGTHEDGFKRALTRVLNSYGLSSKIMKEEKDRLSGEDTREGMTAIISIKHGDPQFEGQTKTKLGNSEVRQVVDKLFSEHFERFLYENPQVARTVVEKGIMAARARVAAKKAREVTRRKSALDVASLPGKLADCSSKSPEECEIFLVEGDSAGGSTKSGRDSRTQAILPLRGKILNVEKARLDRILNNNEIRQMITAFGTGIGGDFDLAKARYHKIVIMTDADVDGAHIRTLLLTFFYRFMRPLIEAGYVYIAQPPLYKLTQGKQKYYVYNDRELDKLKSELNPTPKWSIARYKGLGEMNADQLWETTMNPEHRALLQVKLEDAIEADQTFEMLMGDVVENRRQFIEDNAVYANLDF
# Sequence (P20831 whole entry): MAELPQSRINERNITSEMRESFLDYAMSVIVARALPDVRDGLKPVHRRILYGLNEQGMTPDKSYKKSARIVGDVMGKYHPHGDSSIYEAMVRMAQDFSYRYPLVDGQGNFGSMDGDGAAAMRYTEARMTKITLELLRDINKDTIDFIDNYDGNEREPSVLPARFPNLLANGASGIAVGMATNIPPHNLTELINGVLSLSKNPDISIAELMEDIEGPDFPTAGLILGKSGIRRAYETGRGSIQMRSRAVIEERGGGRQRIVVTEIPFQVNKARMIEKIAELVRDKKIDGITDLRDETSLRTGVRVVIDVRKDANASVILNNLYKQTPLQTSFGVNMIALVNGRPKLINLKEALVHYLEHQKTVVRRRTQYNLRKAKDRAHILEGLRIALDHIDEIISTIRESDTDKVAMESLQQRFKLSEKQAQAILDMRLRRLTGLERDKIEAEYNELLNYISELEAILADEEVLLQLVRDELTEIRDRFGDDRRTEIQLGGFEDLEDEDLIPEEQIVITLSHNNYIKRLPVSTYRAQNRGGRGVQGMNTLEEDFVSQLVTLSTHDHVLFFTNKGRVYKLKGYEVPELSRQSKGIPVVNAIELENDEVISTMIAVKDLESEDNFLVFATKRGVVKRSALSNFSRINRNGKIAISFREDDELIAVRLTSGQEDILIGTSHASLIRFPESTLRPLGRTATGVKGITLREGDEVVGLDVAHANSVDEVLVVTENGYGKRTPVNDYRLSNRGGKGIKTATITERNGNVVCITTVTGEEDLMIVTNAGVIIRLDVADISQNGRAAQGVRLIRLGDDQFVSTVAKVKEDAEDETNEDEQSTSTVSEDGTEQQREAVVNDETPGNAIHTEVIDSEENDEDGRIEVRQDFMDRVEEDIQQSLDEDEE
# assay.details: Inhibition of Staphylococcus aureus DNA gyrase using relaxed pNO1 plasmid and biotinylated oligonucelotide incubated for 30 mins by fluorescence based DNA super-coiling assay
pIC50: −log10 of the molar value.
The label depends only on pIC50: fulfilled if it is at least 4, not fulfilled if it is smaller.

Worked set:
{"input.smiles": "O=C(O)C(=O)Nc1nc2c(s1)C[C@@H](NC(=O)c1cc(Cl)c(Cl)[nH]1)CC2", "assigned.class": "not fulfilled"}
{"input.smiles": "O=C(O)CCC(=O)Nc1nc2c(s1)C[C@@H](NC(=O)c1cc(Cl)c(Cl)[nH]1)CC2", "assigned.class": "fulfilled"}
{"input.smiles": "CC(=O)Nc1nc2c(s1)C[C@@H](NC(=O)c1cc(Br)c(Br)[nH]1)CC2", "assigned.class": "fulfilled"}
{"input.smiles": "O=C(O)CCC(=O)Nc1nc2c(s1)C[C@@H](NC(=O)c1cc(Br)c(Br)[nH]1)CC2", "assigned.class": "not fulfilled"}

Turning to the following compound.
Ask | Could you tell me if the measured pIC50 of CCOC(=O)C(=O)Nc1nc2c(s1)C[C@@H](NC(=O)c1cc(Cl)c(Cl)[nH]1)CC2 reaches 4 or more?
Reply | not fulfilled

###

# assayed.system: DNA gyrase (Staphylococcus aureus) (UniProt P0A0K8+P20831)
# Sequence (P0A0K8 2-644 limits assumed): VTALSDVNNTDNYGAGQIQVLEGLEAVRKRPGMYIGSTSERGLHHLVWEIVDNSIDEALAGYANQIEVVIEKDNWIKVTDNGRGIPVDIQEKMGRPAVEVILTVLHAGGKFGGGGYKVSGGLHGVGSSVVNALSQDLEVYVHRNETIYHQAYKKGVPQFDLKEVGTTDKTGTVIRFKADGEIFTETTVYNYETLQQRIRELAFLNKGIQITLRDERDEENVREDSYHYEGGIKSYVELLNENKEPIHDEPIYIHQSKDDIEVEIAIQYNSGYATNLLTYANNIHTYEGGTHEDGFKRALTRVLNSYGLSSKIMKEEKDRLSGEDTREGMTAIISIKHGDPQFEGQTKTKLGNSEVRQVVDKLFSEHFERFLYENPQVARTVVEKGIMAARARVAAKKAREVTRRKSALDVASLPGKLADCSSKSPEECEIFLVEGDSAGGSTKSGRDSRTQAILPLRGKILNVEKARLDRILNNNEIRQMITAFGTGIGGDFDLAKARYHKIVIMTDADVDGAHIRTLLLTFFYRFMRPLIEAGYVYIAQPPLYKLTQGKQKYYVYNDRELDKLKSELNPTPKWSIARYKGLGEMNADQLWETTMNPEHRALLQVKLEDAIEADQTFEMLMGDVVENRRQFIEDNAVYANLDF
# Sequence (P20831 whole entry partner): as the sequence (P20831 whole entry) above
# assay.details: Inhibition of Staphylococcus aureus DNA gyrase assessed as residual enzyme activity at 100 uM using relaxed pNO1 plasmid and biotinylated oligonucelotide incubated for 30 mins by fluorescence based DNA super-coiling assay
# Format: protein-complex assay
Note to self: values exactly at 90% are MET. So Activity at or above 90% is MET, below is NOT MET.

{"molecule": "O=C(O)CC(=O)Nc1nc2c(s1)C[C@H](NC(=O)c1cc(Br)c(Br)[nH]1)CC2", "assayed.system": "DNA gyrase (Staphylococcus aureus) (UniProt P0A0K8+P20831)", "assigned.class": "MET"}

Ask | Is reported Activity greater than or equal to 90% here: COC(=O)CC(=O)Nc1ncc2c(n1)CCC(NC(=O)c1cc(Br)c(Br)[nH]1)C2 (centres undefined)
Reply | NOT MET

Ask | Threshold query (Activity >= 90%) on Nc1ncc2c(n1)CCC(NC(=O)c1cc3ccccc3[nH]1)C2 (centres undefined)
Reply | MET

Ask | Check the entry COC(=O)CCC(=O)Nc1nc2c(s1)C[C@@H](NC(=O)c1cc3ccccc3[nH]1)CC2 : does Activity equal or exceed 90%?
Reply | NOT MET

Ask | Tell me whether Activity is at least 90% here: Nc1ncc2c(n1)CCC(NC(=O)c1cc(Br)c[nH]1)C2 (centres undefined)
Reply | MET

Ask | Does Nc1nc2c(s1)C[C@@H](NC(=O)c1cc3ccccc3[nH]1)CC2 have a reported Activity of at least 90%?
Reply | NOT MET

Ask | Can Nc1ncc2c(n1)CCC(NC(=O)c1cc(Br)c(Br)[nH]1)C2 (centres undefined) be said to have Activity at or above 90%?
Reply | MET

Ask | Test whether the molecule Nc1nc2c(s1)C[C@@H](NC(=O)c1cc(Cl)c(Cl)[nH]1)CC2 records Activity of 90% or higher.
Reply | NOT MET

Ask | Please indicate if the recorded Activity for Nc1nc2c(s1)C[C@H](NC(=O)c1cc(Br)c(Br)[nH]1)CC2 meets or exceeds 90%.
Reply | MET
